These data points were gathered from ChEMBL document CHEMBL1275278.

Tested on: Mycobacterium tuberculosis
protocol description: Antimycobacterial activity against Mycobacterium tuberculosis H37Rv after 21 days by broth dilution assay
Assay type: functional
condition label: 504 h
measurement kind: MIC (µg/mL)
Numbers only, in µg/mL.

Sample records with MIC:
- CC(C)c1csc(-c2nnc3n2N=C(c2ccc([N+](=O)[O-])cc2)CS3)n1: 31.2
- CC(C)c1csc(-c2n[nH]c(=S)n2NC(=O)c2ccccc2)n1: 16

# map each compound to its MIC
1. CC(C)c1csc(-c2nnc3n2N=C(c2ccc(Cl)cc2)CS3)n1
2. CC(C)c1csc(-c2nn(CN3CCOCC3)c(=S)n2/N=C/c2ccccc2Cl)n1
3. COc1cc(/C=N/n2c(-c3nc(C(C)C)cs3)nn(CN3CCN(C)CC3)c2=S)cc(OC)c1OC
4. NNC(=O)c1ccncc1
5. CC(C)c1csc(-c2nnc3n2N=C(c2ccccc2)CS3)n1

Result string:
[16, 31.2, 8, 0.25, 125]

Quick one: give me MIC for each item below, same order please.
1. CC(C)c1csc(-c2nn(CN3CCN(C)CC3)c(=S)n2/N=C/c2ccc(N(C)C)cc2)n1
2. CC(C)c1csc(-c2nn(CN3CCN(C)CC3)c(=S)o2)n1

Result string:
1: 4; 2: 16

Can you give me MIC for all of these, one by one?
1. COc1ccc(C(=O)Nn2c(-c3nc(C(C)C)cs3)n[nH]c2=S)cc1
2. Cc1nn2c(-c3nc(C(C)C)cs3)nnc2s1
3. CC(C)c1csc(-c2nnc3n2N=C(c2ccc(Br)cc2)CS3)n1
4. COc1cc(/C=N/n2c(-c3nc(C(C)C)cs3)nn(CN3CCOCC3)c2=S)cc(OC)c1OC
5. CC(C)c1csc(-c2nnc3n2NC(c2ccc(F)cc2F)S3)n1 (centres undefined)

Result string:
1: 16; 2: 31.2; 3: 62.5; 4: 31.2; 5: 4

Could you tell me MIC for each of these compounds? They are listed below.
1. CC(C)c1csc(-c2nnc3n2NC(c2ccccc2Cl)S3)n1 (centres undefined)
2. CC(C)c1csc(-c2nnc3n2NC(c2ccc(N(C)C)cc2)S3)n1 (centres undefined)
3. COc1ccc(C2=Nn3c(nnc3-c3nc(C(C)C)cs3)SC2)cc1
4. CC(C)c1csc(-c2nn(CN3CCN(C)CC3)c(=S)n2/N=C/c2ccccc2Cl)n1
5. CC(C)c1csc(-c2n[nH]c(=S)n2NC(=O)c2ccc(O)cc2)n1
6. CC(C)c1csc(-c2nnc3n2N=C(c2ccc(O)cc2)CS3)n1
7. COc1cc(C2Nn3c(nnc3-c3nc(C(C)C)cs3)S2)cc(OC)c1OC (centres undefined)
8. CC(C)c1csc(-c2nn(CN3CCOCC3)c(=S)o2)n1

Result string:
1: 62.5; 2: 4; 3: 4; 4: 31.2; 5: 62.5; 6: 125; 7: 62.5; 8: 31.2

* * *

For each entry below, report its MIC value.
System: Saccharomyces cerevisiae
protocol description: Antifungal activity against Saccharomyces cerevisiae ATCC 9763 after 24 hrs by broth microdilution method
Assay type: functional
condition label: ATCC 9763, 24 h

* CC(C)c1csc(-c2nnc3n2NC(c2ccc(N(C)C)cc2)S3)n1 (configuration not stated) | 31.2 µg/mL

Report MIC for each item below.
1. Cc1ccc(C(=O)Nn2c(-c3nc(C(C)C)cs3)n[nH]c2=S)cc1
2. CC(C)c1csc(-c2nn(CN3CCN(C)CC3)c(=S)n2/N=C/c2ccc(N(C)C)cc2)n1
3. COc1ccc(C2Nn3c(nnc3-c3nc(C(C)C)cs3)S2)cc1 (configuration not stated)

Result string:
1. 62.5 µg/mL
2. 16 µg/mL
3. 62.5 µg/mL
